assay: acute oral toxicity (LD50) in Webster mice; format: in vivo; settings: mouse, in vivo, read-out: LD50 (dosage which is lethal for 50% of the mice)
propertyName: LD50

compound="CC(OCC(=O)[O-])C(=O)[O-].[Na+].[Na+] (stereo not drawn)" resultvalue="> 5000 mg/kg"
compound="O=C([O-])COCC(=O)[O-].[Na+].[Na+] [reference compound]" resultvalue="2850 mg/kg"
compound="CC(OC(C)C(=O)[O-])C(=O)[O-].[Na+].[Na+] (stereo not drawn)" resultvalue="> 5000 mg/kg"
